Molecular target: T1, CLDN18.2 (CLDN18.2-Flag 293t cells) (Homo sapiens, UniProt P56856)
T1 construct: expressed in transfected cells; host or cells: 293t cells, transient transfection
Test: Binding specificity, 293t cells expressing CLDN18.2-Flag, flow cytometry
Settings: 10 μg/ml antibody, 4° C. 1 hour
From the text: Human Claudin18 proteins include two homologues, i.e., CLDN18.1 and CLDN18.2, which share exons other than exon 1, and the exon 1 sequences of CLDN18.1 and CLDN18.2 are highly similar with only 8 different amino acids in the first extracellular region. The exon 1 of CLDN18.1 and the exon 1 of CLDN18.2 are specifically expressed in different tissues driven by different promoters. […]
experimentalReadout: binding to CLDN18.2-flag transfected positive 293t cells

[[record]]
molecule = "18.2-A4: recombinant monoclonal CLDN18.2 antibody, VH SEQ ID NO: 31, VL SEQ ID NO: 36 (antibody, V domains shown, 18.2-A4 VH; 18.2-A4 VL) VH: EVQLVQSGAEVKKPGASVKVSCKASGYTFTSFWISWVRQAPGQGLEWIGNILPSDSYTNYNQKFKDRATLTVDKSTSTAYMELSSLRSEDTAVYYCTRYWRGNSFDYWGQGTLVTVSS VL: DIVMTQSPDSLALALGERATINCKSSQSIINSGNQKNYLTWYQQKPGQPPKLLIYWGGTRHSGVPDRFSGSGSGTDFTLTISSLQAEDVAVYYCQNGYYSPFTFGQGTKVEIK"
testresult = "able to bind well"

[[record]]
molecule = "18.2-A3: recombinant monoclonal CLDN18.2 antibody, VH SEQ ID NO: 21, VL SEQ ID NO: 26 (antibody, V domains shown, 18.2-A3 VH; 18.2-A3 VL) VH: EVQLVQSGAEVKKPGASVKVSCKASGYTFTSYWLNWVRQAPGQGLEWIGSMYPSDSYTNYNQKFKDRATLTVDKSTSTAYMELSSLRSEDTAVYYCTRFSRGNSFDYWGQGTLVTVSS VL: DIVMTQSPDSLTVALGERATINCKSSQSLLESGNQKNYLTWYQQKPGQPPKLLIYWSWAKNSGVPDRFSGSGSGTDFTLTISSLQAEDVAVYYCQNAYAFPFTFGQGTKVEIK"
testresult = "able to bind well"


Reference for the values: patent US12662531B2
